# credit: the MegaScale stability set (Tsuboyama et al. 2023)

B1: 1ZHC (parent)
chain: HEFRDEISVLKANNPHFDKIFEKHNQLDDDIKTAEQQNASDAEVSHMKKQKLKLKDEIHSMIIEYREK

Variants of: B1
Protocol notes: folding stability dG (cDNA display proteolysis); higher = more stable
Test parameters: PBS, room temperature
Examples of variants with documented folding stability dG follow.
Assay readout: folding stability dG (kcal/mol)

Mutation	Assay readout	Unit abbrev	Endpoint value
K48V	folding stability dG	kcal/mol	0.419
H46I	folding stability dG	kcal/mol	1.23
D30L	folding stability dG	kcal/mol	1.27
E2V	folding stability dG	kcal/mol	1.2
N13K	folding stability dG	kcal/mol	0.586
M61I	folding stability dG	kcal/mol	0.447
E43I	folding stability dG	kcal/mol	1.27
S40R	folding stability dG	kcal/mol	0.251
Q26C	folding stability dG	kcal/mol	-0.127
H46E	folding stability dG	kcal/mol	1.47
A42M	folding stability dG	kcal/mol	0.539
L10M	folding stability dG	kcal/mol	-0.173
E22I	folding stability dG	kcal/mol	0.633
I62M	folding stability dG	kcal/mol	0.117
K23M	folding stability dG	kcal/mol	1.58
Y65N	folding stability dG	kcal/mol	-0.975
Q50E	folding stability dG	kcal/mol	0.976
Y65I	folding stability dG	kcal/mol	0.311
D5G	folding stability dG	kcal/mol	0.455
T33A	folding stability dG	kcal/mol	1.14
A42L	folding stability dG	kcal/mol	0.464
N25H	folding stability dG	kcal/mol	0.533
E35A	folding stability dG	kcal/mol	0.281
N25K	folding stability dG	kcal/mol	1.42
H24T	folding stability dG	kcal/mol	-0.497
D29Q	folding stability dG	kcal/mol	1.5
A34R	folding stability dG	kcal/mol	0.663
Q50H	folding stability dG	kcal/mol	0.479
K23T	folding stability dG	kcal/mol	0.355
N13M	folding stability dG	kcal/mol	1.33
L10Y	folding stability dG	kcal/mol	-0.44
K23I	folding stability dG	kcal/mol	0.915
R66Q	folding stability dG	kcal/mol	0.328
F3M	folding stability dG	kcal/mol	0.267
S8V	folding stability dG	kcal/mol	0.784
K49V	folding stability dG	kcal/mol	0.867
E64I	folding stability dG	kcal/mol	0.119
Q26V	folding stability dG	kcal/mol	-0.13
D41T	folding stability dG	kcal/mol	0.736
Q26H	folding stability dG	kcal/mol	-0.231
K11W	folding stability dG	kcal/mol	-0.052
D41A	folding stability dG	kcal/mol	1.23
H46C	folding stability dG	kcal/mol	1.09
E64K	folding stability dG	kcal/mol	0.999
D18I	folding stability dG	kcal/mol	1.43
E67W	folding stability dG	kcal/mol	0.996
